src = patent US20220177604A1

study.target: T1, human immunoglobulin E (hIgE) (human, UniProt P01854-1 1-428)
T1 construct: also called human IgE; Native IgE (Abcam)
T1 sequence (P01854 whole entry): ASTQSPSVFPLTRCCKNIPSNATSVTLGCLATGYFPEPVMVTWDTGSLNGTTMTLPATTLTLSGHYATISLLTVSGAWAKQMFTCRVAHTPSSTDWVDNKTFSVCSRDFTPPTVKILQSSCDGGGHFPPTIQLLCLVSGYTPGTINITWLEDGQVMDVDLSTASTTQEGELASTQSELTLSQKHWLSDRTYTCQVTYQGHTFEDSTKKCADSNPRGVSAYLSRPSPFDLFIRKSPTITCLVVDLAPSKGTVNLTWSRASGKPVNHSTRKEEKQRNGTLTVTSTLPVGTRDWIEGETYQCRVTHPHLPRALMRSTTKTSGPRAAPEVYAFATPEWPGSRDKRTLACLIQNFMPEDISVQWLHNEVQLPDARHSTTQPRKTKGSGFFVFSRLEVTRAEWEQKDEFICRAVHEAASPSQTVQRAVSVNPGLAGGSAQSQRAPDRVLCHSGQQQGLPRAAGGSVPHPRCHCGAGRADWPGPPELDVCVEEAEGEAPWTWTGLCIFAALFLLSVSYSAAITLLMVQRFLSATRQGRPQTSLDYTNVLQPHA
measurement.description: SPR (Biacore), pH 7.4
measurement.kind: Kd (nM)
// note: answer is a bare numeric in nM

q: State the recorded Kd for this entry: OmaVH15G55HW100b - VL3 (antibody, V domains shown) VH: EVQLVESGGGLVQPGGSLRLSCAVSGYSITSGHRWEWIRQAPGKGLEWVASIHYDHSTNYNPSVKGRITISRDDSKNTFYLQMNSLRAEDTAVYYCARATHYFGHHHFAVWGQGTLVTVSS VL: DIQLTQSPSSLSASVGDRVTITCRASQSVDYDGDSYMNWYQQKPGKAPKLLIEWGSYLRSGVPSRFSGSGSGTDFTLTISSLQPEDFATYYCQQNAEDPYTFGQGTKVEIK
a: 8.69

q: Input OmaVH15G55HW100b - VL3D28H (antibody, V domains shown, also called OmaVH15G55HW100b VL3D25H) VH: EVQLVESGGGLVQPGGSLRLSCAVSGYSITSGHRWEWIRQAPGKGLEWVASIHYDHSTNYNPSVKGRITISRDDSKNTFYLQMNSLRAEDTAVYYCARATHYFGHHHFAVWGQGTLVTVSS VL: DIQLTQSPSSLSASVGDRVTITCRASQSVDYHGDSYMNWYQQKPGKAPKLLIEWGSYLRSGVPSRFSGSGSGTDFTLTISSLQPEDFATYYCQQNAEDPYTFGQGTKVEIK
a: 15.2

q: Next binder: Oma VH15W100b - VL3 (antibody, V domains shown) VH: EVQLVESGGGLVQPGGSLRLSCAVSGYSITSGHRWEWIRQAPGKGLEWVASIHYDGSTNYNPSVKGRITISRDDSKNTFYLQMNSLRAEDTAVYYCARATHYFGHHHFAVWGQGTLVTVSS VL: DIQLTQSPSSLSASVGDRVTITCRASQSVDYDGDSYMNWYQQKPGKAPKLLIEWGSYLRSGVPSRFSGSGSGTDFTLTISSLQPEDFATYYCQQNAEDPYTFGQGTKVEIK
a: 2.93
